Test system: MT1-MMP promoter luciferase reporter cells, luminescence
assayNotes: MT1-MMP gene expression reporter suppression – cell-based, luciferase reporter, luminescence (AID 618);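 also: actives suppress MT1-MMP promoter-driven transcription so potencies describe inhibitors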
This section presents compounds with their documented EC50 values.

{"smilesRepresentation": "COC(=O)c1ccc(-c2nc3cc(N)ccc3o2)cc1", "EC50": "3.09 µM"}
{"smilesRepresentation": "Cc1cc(N2CCOCC2)n2ncc(-c3ccccc3)c2n1", "EC50": "3.57 µM"}
{"smilesRepresentation": "Cc1cc(C)c2c(N)c(C(=O)Nc3nccs3)sc2n1", "EC50": "1.32 µM"}
{"smilesRepresentation": "O=C(CCCc1ccccc1)c1ccc2c(c1)OCCO2", "EC50": "0.28 µM"}
{"smilesRepresentation": "Nc1ccc2oc(-c3ccc4nc[nH]c4c3)nc2c1", "EC50": "4.29 µM"}
{"smilesRepresentation": "CCN=C1NN=C(c2ccc(C)cc2)CS1", "EC50": "1.98 µM"}
{"smilesRepresentation": "O=C(Nc1ccc(N2CCCCC2)cc1)c1ccccc1", "EC50": "3.57 µM"}

###

Test system: MT1-MMP promoter luciferase reporter cells, luminescence
assayNotes: MT1-MMP gene expression reporter suppression – cell-based, luciferase reporter, luminescence (AID 618);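 also: actives suppress MT1-MMP promoter-driven transcription so potencies describe inhibitors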
Calls of active or inactive are those of the source. The rule behind the calls is not given here.
Possible outcomes: active, inactive

{"compound": "CC(C)c1ccc2oc(-c3ccc(N)cc3)nc2c1", "classAssignment": "active"}
{"compound": "Cc1cnc(NC(=O)C2COc3ccccc3O2)s1 (stereo not given)", "classAssignment": "active"}
{"compound": "Cc1csc(NC(=O)c2cc3c(s2)CCCC3)n1", "classAssignment": "active"}
{"compound": "O=C(Nc1ccc(NC(=O)c2ccco2)nc1)c1ccccn1", "classAssignment": "active"}
{"compound": "COc1ccc(C(=O)/C=C/Nc2cccc(O)c2)cc1", "classAssignment": "active"}
{"compound": "c1ccc(-c2cnc(-c3ccccc3)nc2)cc1", "classAssignment": "active"}
{"compound": "O=C(/C=C/Nc1cccc(O)c1)c1ccccc1", "classAssignment": "active"}
{"compound": "COc1ccc(C(=O)/C=C/Nc2ccccn2)cc1", "classAssignment": "active"}
{"compound": "Cc1cc(C(=O)CSc2nc3ccccc3[nH]2)c(C)n1CC1CCCO1 (stereo not given)", "classAssignment": "active"}
{"compound": "O=C1C(N2CCOCC2)=C(n2nnc3ccccc32)C(=O)c2ccccc21", "classAssignment": "active"}
{"compound": "Cc1cc(C)n(-c2nc3ccccc3nc2N2CCC(C)CC2)n1", "classAssignment": "inactive"}
{"compound": "c1ccc(C2=NNC(=NC3CC3)SC2)cc1", "classAssignment": "active"}
{"compound": "O=C1C(Cl)=C(N2CCCCC2)C(=O)C(Cl)=C1c1cnc(N2CCCCC2)s1", "classAssignment": "active"}
{"compound": "CCCCCCOc1ccc(CN2CCN(CCO)CC2)cc1", "classAssignment": "active"}
{"compound": "O=C1c2ccccc2S(=O)(=O)N1Cc1nc2ccccc2s1", "classAssignment": "active"}
{"compound": "CCc1ccc(-c2nnn(CCC(=O)OC)n2)cc1", "classAssignment": "active"}
{"compound": "COc1ccc(-c2cc3nc(C)cc(N)n3n2)cc1", "classAssignment": "active"}
{"compound": "O=C(/C=C\\Nc1ccc2c(c1)OCO2)c1ccccn1", "classAssignment": "active"}
{"compound": "CC(C)CNC(=O)c1coc(=O)c(Br)c1", "classAssignment": "active"}
{"compound": "COc1cc([N+](=O)[O-])ccc1N/C=C/C(=O)c1cccs1", "classAssignment": "active"}
{"compound": "CC(=O)Nc1ccc(SCC(=O)c2cc(C)n(Cc3cccs3)c2C)cc1", "classAssignment": "active"}
{"compound": "Cc1cccc(C(=O)N2CCN(C(=O)c3cccc(C)c3)C(C)C2)c1 (stereo not given)", "classAssignment": "inactive"}
{"compound": "O=C(Nc1cccc(O)c1)c1noc2c1CCCCC2", "classAssignment": "active"}
{"compound": "Cc1ccc(-c2nc3cc(C)ccc3o2)cc1", "classAssignment": "active"}
{"compound": "CCOc1ccc(NC(=O)c2cnsn2)cc1", "classAssignment": "active"}
{"compound": "COc1ccc(C(=O)Nn2c(SCC(=O)NCc3ccccc3)nc3ccccc3c2=O)cc1", "classAssignment": "active"}
{"compound": "COCCn1c(C)cc(C2=NNC(=Nc3ccccc3)SC2)c1C", "classAssignment": "active"}
{"compound": "CCOc1ccc(C(=O)NCCc2ccccc2)cc1", "classAssignment": "active"}
{"compound": "CNc1nnc(-c2ccc(N(C)C)cc2)s1", "classAssignment": "active"}
{"compound": "CC(C)(C)c1ccc(OCC(O)CSc2ncn[nH]2)cc1 (stereo not given)", "classAssignment": "active"}
{"compound": "Fc1ccc(-c2nnc(-c3ccc(Cl)cc3Cl)o2)cc1", "classAssignment": "active"}
{"compound": "O=C(c1ccc(Cl)cc1)N1CCCCC(Sc2nnc(-c3ccc4c(c3)OCO4)o2)C1=O (stereo not given)", "classAssignment": "active"}
{"compound": "CCOc1ccc(OCc2ccc(C(=O)OCc3ccccn3)o2)cc1", "classAssignment": "active"}
{"compound": "O=C(O)CCSc1nc2ccccc2s1", "classAssignment": "active"}
{"compound": "Cc1ccc(SCc2cn3c(C)csc3n2)cc1", "classAssignment": "active"}
{"compound": "Cc1ccc(-c2nc3n(n2)Cc2ccccc2-3)cc1", "classAssignment": "active"}
{"compound": "Cc1nc(NC2=NCN(CCCN3CCOCC3)CN2)nc2c(C)cccc12", "classAssignment": "active"}
{"compound": "CC1=NC(=O)C(N=Nc2cccc(C(=O)O)c2)N1c1ccccc1 (stereo not given)", "classAssignment": "active"}
{"compound": "COC(=O)c1nn(-c2ccc3c(c2)CCN3C(C)=O)cc1O", "classAssignment": "active"}
{"compound": "C=CCn1c(C)cc(C(=O)CSc2nc3ccccc3[nH]2)c1C", "classAssignment": "active"}
{"compound": "Cc1ccc(C(=O)Nc2cccc(C(=O)O)c2)cc1S(=O)(=O)N1CCCCC1", "classAssignment": "active"}
{"compound": "O=c1c2ccccc2nnn1CSc1nnc2sc3ccccc3n12", "classAssignment": "active"}
{"compound": "O=C(CSc1nnc(-c2ccccc2)o1)Nc1ccccc1F", "classAssignment": "active"}
{"compound": "Cc1ccnc(Nc2nc3ccccc3o2)n1", "classAssignment": "active"}
{"compound": "CCn1c(SCC(=O)Nc2ccccc2C)nnc1-c1ccccc1O", "classAssignment": "inactive"}
{"compound": "COc1cccc(Cn2c(NCc3cccnc3)nc3c2c(=O)n(C)c(=O)n3C)c1", "classAssignment": "active"}
{"compound": "O=C(Nc1ccc(N2CCCC2)c(Cl)c1)c1ccco1", "classAssignment": "active"}
{"compound": "Cc1ccc(C(=O)Nc2cccc(C(=O)O)c2)cc1", "classAssignment": "active"}
{"compound": "CCc1ccc2oc(-c3cccc(N)c3)nc2c1", "classAssignment": "active"}
{"compound": "Cc1nc(Nc2nc3ccccc3o2)nc2c1CCC2", "classAssignment": "active"}

###

Parameter: EC50. Scope: all listed entries.
System: MT1-MMP promoter luciferase reporter cells, luminescence
assayNotes: MT1-MMP gene expression reporter suppression – cell-based, luciferase reporter, luminescence (AID 618);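 also: actives suppress MT1-MMP promoter-driven transcription so potencies describe inhibitors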

{"compound": "CN1/C(=C\\C=C\\C2=[N+](C)c3ccc4ccccc4c3C2(C)C)C(C)(C)c2ccccc21", "EC50": "4.71 µM"}
{"compound": "Cc1ccc(NC2=Nc3ccccc3CC2)cc1", "EC50": "2.72 µM"}
{"compound": "C=CCNc1nc(-c2ccccn2)nnc1-c1ccccc1", "EC50": "15.2 µM"}
{"compound": "Brc1ccccc1-c1nc(-c2ccccc2)no1", "EC50": "6.92 µM"}
{"compound": "Cc1ccc(-c2nnc(SCC(=O)Nc3ccccc3F)o2)cc1", "EC50": "0.6 µM"}
{"compound": "CN1CCN(CC(=O)N2CCn3c4c(c5cc(C6CCCCC6)ccc53)CCCC42)CC1 (stereo unspecified)", "EC50": "12 µM"}

###

Tested on: MT1-MMP promoter luciferase reporter cells, luminescence
assayNotes: MT1-MMP gene expression reporter suppression – cell-based, luciferase reporter, luminescence (AID 618);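 also: actives suppress MT1-MMP promoter-driven transcription so potencies describe inhibitors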
The source made the active and inactive calls. No rule for the calls is given here.

{"molecule": "CCOC(=O)c1sc2nc3c(cc2c1N)COC(C(C)C)C3 (stereo not given)", "EC50": "1.62 µM"}
{"molecule": "O=C1c2ccccc2C(=O)C1c1nccc2ccccc12", "EC50": "1.83 µM"}
{"molecule": "O=c1c2sc(-c3ccccc3)cc2nc2n1CCC2", "EC50": "4.05 µM"}
{"molecule": "Cc1cccc(-n2ncc3c(N4CCCC4)ncnc32)c1", "EC50": "7.6 µM"}
{"molecule": "O=C(NCc1cccs1)c1nc2c(nnn2Cc2ccccc2Cl)c(=O)[nH]1", "EC50": "> 50 µM (inactive)"}
{"molecule": "Cc1ccc2nc(-c3cccc(N)c3)[nH]c2c1", "EC50": "2.8 µM"}
{"molecule": "CC(=O)N(Cc1ccc(F)cc1)C1=C(NCCc2ccccc2)C(=O)c2ccccc2C1=O", "EC50": "12.2 µM"}
{"molecule": "Cc1nc2ccc(-c3nc4cc(N)ccc4o3)cc2[nH]1", "EC50": "3.71 µM"}
{"molecule": "CC1CC(C)(C)Nc2ccc(OC(=O)c3ccco3)cc21 (stereo not given)", "EC50": "3.01 µM"}
{"molecule": "Cc1c(C(=O)NC2=NCCS2)oc2ccccc12", "EC50": "9.29 µM"}
{"molecule": "Clc1c(CSc2nc3ccccc3o2)nc2ccccn12", "EC50": "12.1 µM"}
{"molecule": "COc1ccc(O)c(C(=O)CC(=O)c2ccc(F)cc2)c1", "EC50": "0.57 µM"}
{"molecule": "O=C(O)CSCC(=O)Nc1ccc(C2CCCCC2)cc1", "EC50": "0.58 µM"}
{"molecule": "COc1ccc(-c2nc3ccccc3[nH]2)cc1", "EC50": "2.72 µM"}
{"molecule": "O=C(Nc1nc2ccccc2[nH]1)c1ccccc1", "EC50": "3.53 µM"}
{"molecule": "Cc1csc(NC(=O)C2COc3ccccc3O2)n1 (stereo not given)", "EC50": "1.64 µM"}
{"molecule": "Cc1ccc(O)c(/C=N/NC(=O)C2=NNC(c3ccccc3)(c3ccccc3)C2)c1", "EC50": "19 µM"}
{"molecule": "Cc1ccc(CNc2nc3ccccc3s2)s1", "EC50": "1.67 µM"}
{"molecule": "CN1/C(=C/C(=O)c2nc(S(C)(=O)=O)ncc2Cl)C(C)(C)c2ccccc21", "EC50": "16.1 µM"}
{"molecule": "CN1CCN(c2ncnc3c2cnn3-c2ccc(Cl)cc2)CC1", "EC50": "3.9 µM"}
{"molecule": "O=C(NC1=NC2CCCCC2N1)c1ccccc1 (stereo not given)", "EC50": "12.9 µM"}
{"molecule": "O=c1/c(=C/c2ccccn2)sc2nc3ccccc3n12", "EC50": "10 µM"}
{"molecule": "Cc1cc(C(=O)CSc2nnc(-c3cccs3)o2)c(C)n1-c1ccccc1", "EC50": "7.72 µM"}
{"molecule": "Cc1c(C(=O)NCC2CCCO2)oc2ccc3c(c12)C(=O)CC(C)(C)O3 (stereo not given)", "EC50": "12.5 µM"}
{"molecule": "COc1ccc(C(=O)Nc2nnc(-c3ccco3)s2)cc1", "EC50": "1.73 µM"}
